Target: cdk2/cyclinA (Homo sapiens)
Assay: Cyclin-Dependent Kinase Assay cdk2/cyclinA
Details: cdk2/A IC50, Table 1
pIC50: −log10 of the molar value.
So basically: pIC50 at 7 or higher? That is true. Lower than 7? That is false.

Solved entries (count: 2):
>  <COMPOUND>
CCN(CC)CCOc1ccc(Nc2ncc3ccc(=O)n(-c4ccccc4)c3n2)cc1

>  <DISCRETE LABEL>
false

$$$$
>  <COMPOUND>
CN1CCN(c2ccc(Nc3ncc4ccc(=O)n(CCOCc5ccccc5)c4n3)cc2)CC1

>  <DISCRETE LABEL>
false

$$$$

Asked: Please tell me: is the compound O=c1ccc2cnc(Nc3ccc(F)c(F)c3)nc2n1C1CC2CCC1C2 (centres unmarked) at or over 7 in terms of pIC50?
Given back: true

Asked: Please tell me: is the compound O=c1ccc2cnc(Nc3ccc(-c4ccccc4)cc3)nc2n1C1CC2CCC1C2 (centres unmarked) at or over 7 in terms of pIC50?
Given back: false

Asked: Please tell me: is the compound O=c1ccc2cnc(Nc3ccc(OC(F)(F)C(F)F)cc3)nc2n1C1CC2CCC1C2 (centres unmarked) at or over 7 in terms of pIC50?
Given back: false

Asked: Please tell me: is the compound O=c1ccc2cnc(Nc3ccc(N4CCC(O)CC4)cc3)nc2n1C1CC2CCC1C2 (centres unmarked) at or over 7 in terms of pIC50?
Given back: true

These data points were gathered from patent US20040224958A1.
